tested on: NCI/ADR-RES ovarian; experiment: NCI tumour cell line growth inhibition, 48 h
Some compounds, each annotated with its measured TGI.
Measurement label: TGI

1) CCOC(=O)C1(C(N)=O)C(=O)c2ccncc2C1=O (stereo not given) :: > 100 µM
2) CC1(C)CC(=O)C(CCC(=O)/C=C/c2ccccc2)C(=O)C1 :: > 100 µM
3) CCC(C#N)(c1ccccc1)N(CCc1ccccc1)C(=O)c1ccccc1 (stereo not given) :: > 100 µM
4) Cc1ccc(S(=O)(=O)OC2CCN(C)CC2)cc1 :: > 100 µM
5) CN(Cc1cnc2nc(N)nc(N)c2n1)c1ccc(C(=O)NC(CCC(=O)O)C(=O)O)cc1C(F)(F)F (stereo not given) :: > 100 µM
6) Nc1c(C(=O)c2cccc(CCCN3CCOCC3)c2)cnn1-c1ccc(F)cc1 :: > 25 µM
7) Nc1ncnc2c1ncn2C1OC(COP(=O)(O)O)C(O)C1O (stereo not given) :: > 32.2 µM
8) COc1cc(C2SCC(=O)N2c2cc(Cl)c(Cl)cc2Cl)cc(OC)c1OC (stereo not given) :: > 100 µM
9) COC(=O)c1c2c(cc3c1CC1(Cc4cc5c(c(C=O)c4C1)CCCC5)C3)CCCC2 (stereo not given) :: > 100 µM
10) N#Cc1c(N2CCCC2)nsc1NCc1ccccc1 :: > 100 µM
11) O=[N+]([O-])c1ccc(S(=O)(=O)Cc2ccccc2)c([N+](=O)[O-])c1 :: > 51.8 µM
12) Cc1ccc(S(=O)(=O)N2CCCN(S(=O)(=O)c3ccc(C)cc3)CCN(S(=O)(=O)c3ccc(C)cc3)CCCSCC2)cc1 :: > 100 µM
13) O=C(O)CCNc1ccccc1C(=O)O :: > 100 µM
14) CCS(=O)(=O)N1CCC(C(C)n2c(C)c(C(=O)NCc3c(OC)cc(C)[nH]c3=O)c3ccccc32)CC1 (stereo not given) :: > 100 µM
15) CCc1nc(N)nc(N)c1-c1ccc(NCCN)c([N+](=O)[O-])c1 :: > 100 µM
16) CC(=N\N)/C(C)=N/N=C(C)/C(C)=N/N=C(C)/C(C)=N/N=C(C)/C(C)=N/N :: > 100 µM
17) Cc1cccc(NC(=O)CCc2ccc(N3C(N)=NC(N)=NC3(C)C)cc2)c1 :: > 100 µM
18) O=c1cc(NCCCCCO)[nH]c(=O)[nH]1 :: > 100 µM
19) CC(=O)NCCc1c2c(c3nccc4c3c1Nc1ccccc1-4)OCS2 :: > 38.2 µM
20) CCC1=NC(N/N=C/c2ccco2)=N/C1=C\c1ccccc1O :: > 100 µM

Values compiled from PubChem BioAssay (NCI).
